system: Saccharomyces cerevisiae; assay: protein stability index of tFT-peptide fusion (C-terminal peptide) (PSI (0-1 scale)); higher = more stable (slower turnover); details: genetic background: wild type; temperature: 30 C;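 note: PSI is a weighted mean of sequencing reads over stability bins, variants kept only with over 10 reads, mCherry proximal and sfGFP distal, peptide attached via GGGS linker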
Measured protein stability index values are reported for all entries that follow.

CONSTRUCT SEQUENCE | protein stability index
QSAAPISTPSLC | 0.694
GGRHYGILDLSL | 0.717
LPYSAPPISLTN | 0.702
HISRTLVDADIG | 0.669
LSRLWVVGWVVA | 0.295
GSVRCGLRVRVG | 0.605
VTRGGRVFIVDL | 0.807
RLTLTAKDNEGC | 0.733
AVFGLEAVMRRG | 0.753
AGEERWGGCLTG | 0.653
PSQKRITDPRET | 0.683
ANSGSRSSRVVG | 0.643
NKKKKHKNSKNN | 0.704
YLFSLSSSLFIL | 0.56
SDAIKITFIIHN | 0.473
SCHGGWFLHVFT | 0.645
KHPMRLPHTRRA | 0.706
RRAHATLPMNEF | 0.616
RKRASHALTPPC | 0.732
